Test system: T. cruzi (Tulahuen TcVI)
PROTOCOL_TEXT: Initial PK/PD efficacy: 10-day once daily oral dosing of T. cruzi infected mice
Format: in vivo, Swiss mice
ASSAY_SETUP: 20 mg/kg oral once daily for up to 10 days
TEST_READOUT: parasites cleared from blood during 10-day dosing?

compound="Cc1ncsc1C(=O)N1CCC(NC(c2ccc(C(F)(F)F)cc2)c2cccnc2)CC1 (centres unmarked)" experimental_result=no
compound=FC(F)(F)c1ccc(N(c2cccnc2)C2CCN(c3ccc(C(F)(F)F)cn3)CC2)cc1 experimental_result=yes
compound="Fc1cc(Cl)ccc1C(NC1CCN(c2ccc(C(F)(F)F)cc2)CC1)c1cccnc1 (centres unmarked)" experimental_result=yes
compound="N#Cc1ccc(C(O)(c2ccc(C(F)(F)F)cc2)c2cccnc2)c(F)c1 (centres unmarked)" experimental_result=yes
compound="N#Cc1cccc(N2CCC(NC(c3cccnc3)c3ccc(Cl)cc3F)CC2)c1 (centres unmarked)" experimental_result=no
compound="N#Cc1ccc(C(c2cccnc2)N2CCC(NC(=O)c3ccccc3)CC2)cc1 (centres unmarked)" experimental_result=no
compound="O=C(C(c1ccc(Cl)cc1)c1cccnc1)N1CCN(c2ccc(C(F)(F)F)cc2)CC1 (racemic) [(rac)-7]" experimental_result=yes
compound="N#Cc1ccc(C(c2cccnc2)N2CCC(NC(=O)c3c(F)cccc3F)CC2)cc1 (centres unmarked)" experimental_result=no
compound="N#Cc1ccc(C(O)(c2ccc(C(F)(F)F)cc2)c2cccnc2)cc1 (centres unmarked)" experimental_result=yes
compound="Cc1cc(C(=O)NC2CCN(C(c3ccc(C#N)cc3)c3cccnc3)CC2)n(C)n1 (centres unmarked)" experimental_result=no
compound="CC[C@@H]([C@H](C)O)n1ncn(-c2ccc(N3CCN(c4ccc(OC[C@@H]5CO[C@@](Cn6cncn6)(c6ccc(F)cc6F)C5)cc4)CC3)cc2)c1=O [posaconazole, reference compound]" experimental_result=yes

---

PROTOCOL_TEXT: in vitro
ASSAY_SETUP: rat, L6 IC50 (cytotoxicity), L6 cells
Recorded IC50 values for a group of compounds are listed next.
TEST_READOUT: IC50

compound="CC[C@@H]([C@H](C)O)n1ncn(-c2ccc(N3CCN(c4ccc(OC[C@@H]5CO[C@@](Cn6cncn6)(c6ccc(F)cc6F)C5)cc4)CC3)cc2)c1=O [posaconazole, reference compound]" test_readout=IC50 experimental_result="> 100 µM"
compound="O=C(Cn1ccnc1[N+](=O)[O-])NCc1ccccc1 [benznidazole, reference compound]" test_readout=IC50 experimental_result="> 100 µM"

---

Recorded predicted human EH values for a group of molecules are listed next.
ASSAY_SETUP: Table 1; human liver microsomes
TEST_READOUT: predicted human EH

mol=FC(F)(F)c1ccc(N(c2cncnc2)C2CCN(c3ccc(C(F)(F)F)cn3)CC2)cc1 experimental_result=0.63
mol=N#Cc1ccccc1N1CCC(N(c2ccc(C(F)(F)F)cc2)c2cccnc2)CC1 experimental_result=0.88
mol=Cc1ccccc1CN1CCC(N(c2ccc(C(F)(F)F)cc2)c2cccnc2)CC1 experimental_result=0.87
mol=FC(F)(F)c1ccc(N(c2cccnc2)C2CCN(c3ccc(C(F)(F)F)cn3)CC2)cc1 experimental_result=0.68
